# assay comment: Dissociation constant, acidic pKa of the compound by spectrophotometric analysis
outcome measure: pKa
Write the number on its own, no unit after it.

Task: # query: pKa of entry COc1ccc(-c2cc(C(=O)O)n[nH]2)cc1
Result: 3.31

----------
// Ki collected for Carbonic anhydrase 9 (Homo sapiens)

>>> obs_value("CC(C)c1ccc(-c2cc(C(=O)O)[nH]n2)cc1")
"> 50 µM"
>>> obs_value("CCc1cc(CC)c(-c2cc(C(=O)O)n[nH]2)c(CC)c1")
"> 50 µM"

As a next step, examine the compound that follows.
Task: # query: Ki of entry O=C(O)c1cc(-c2ccc3ccccc3c2)[nH]n1
Result: > 50 µM
